Each recorded value in this set is attributed to patent US7943655B2.

- assay-protocol: Storage stability of crystalline forms (decomposition to Trandolaprilat diketopiperazine, by HPLC)
- Type: physicochemical
- condition-parameters: comparison of crystalline forms, Table 9
reported-metric: Tendency to decompose to Trandolaprilat Diketopiperazine on storage (in words)

{"molecule": "C[C@H](N[C@@H](CCc1ccccc1)C(=O)O)C(=O)N1[C@H](C(=O)O)C[C@H]2CCCC[C@@H]21 [Form B, Trandolaprilat]", "reading": "significantly lower"}
{"molecule": "C[C@H](N[C@@H](CCc1ccccc1)C(=O)O)C(=O)N1[C@H](C(=O)O)C[C@H]2CCCC[C@@H]21 [Form C, Trandolaprilat]", "reading": "significantly lower"}
